Entries with their measured GI50, system SNB-19 CNS:

These solved cases illustrate the format of a correct answer.
STRUCTURE_SMILES_STRING	SYSTEM_TESTED	RESULT_VALUE
O=C(O)c1ccc2c(c1Nc1ccccc1)C(=O)c1ccccc1C2=O	SNB-19 CNS	49.3 µM
O=C(Nc1nccs1)c1cc2c(cc1Cl)Sc1nccn1S2(=O)=O	SNB-19 CNS	18.9 µM
Cn1ncc2c(/N=C/c3cccs3)[nH]c(=S)nc21	SNB-19 CNS	49.9 µM

Fill in GI50 for each of the 2 molecules listed.
1. O=C1C(=O)c2ccccc2-c2ccccc21
2. Clc1cc(Cl)c(Cl)c(-c2nc(-c3cccnc3)cs2)c1

Result:
1. 1.45 µM
2. 66.2 µM

Request: Looking for the measured GI50 of `CCOC(=O)c1c(C)nc2ccc(Cl)cc2c1-c1ccccc1` , can you help?
Result: 14.4 µM

====

tested on: KM12 colon; assay: NCI tumour cell line growth inhibition, 48 h
Assign TGI to each entry below.

MOLECULE	TGI
NC(CNO)C(=O)O (stereo unspecified)	> 100 µM

Each molecule below has a recorded value; state its TGI.
1. CCCN1CN(C(C(=O)N[C@@H]2C(=O)N3C2SC(C)(C)C3C(=O)O)c2ccccc2)CSC1=S (stereo partly specified)
2. N[C@H]1CCN(c2c(F)cc3c(=O)c(C(=O)O)cn4c3c2Oc2cc3c(ccc5ccccc53)cc2-4)C1
3. COc1cc(/C=C/C(=O)c2ccc(Nc3ncnc4ccccc34)cc2)cc(OC)c1
4. COC(=O)[C@@H]1C[C@H]([Se]c2ccccc2)CN1S(=O)(=O)c1ccc(C)cc1
5. C=C1C(=O)O[C@H]2[C@H]1CC/C(Cn1cc(Cn3ccc4ccccc43)nn1)=C\CC[C@@]1(C)O[C@@H]21
6. C#CCOCn1cnc2c(=S)nc[nH]c21

Result:
1. > 100 µM
2. > 100 µM
3. 5.38 µM
4. > 100 µM
5. 15.2 µM
6. > 100 µM

Each molecule below has a recorded value; state its TGI.
1. Nc1ncnc2c1ncn2C1C=CC(CP(=O)(O)O)C1 (stereo unspecified)
2. OCC1NCC(O)C(O)C1O (stereo unspecified)
3. COC(=O)C(C(=O)C(=O)NC1=C(Cl)C(=O)c2ccccc2C1=O)c1csc(-n2nc(-c3ccccc3)cc2-c2ccccc2)n1 (stereo unspecified)
4. CCOC(=O)/C(=C\NCC(OCC)OCC)c1nc2ccccc2[nH]1
5. N#CC(c1ccccc1)N1CCCN(C(C#N)c2ccccc2)C1c1ccccc1O (stereo unspecified)
6. Cc1ccc(OCC2OC(C#N)C(Oc3ccc(C)cc3)C2Oc2ccc(C)cc2)cc1 (stereo unspecified)

Result:
1: > 100 µM; 2: > 100 µM; 3: > 100 µM; 4: > 100 µM; 5: > 100 µM; 6: > 100 µM

Batch lookup, TGI per entry.
1. COc1cc2nc(Sc3c([N+](=O)[O-])ncn3C)[nH]c2cc1OC
2. O=[N+]([O-])c1cc(CCl)ccc1CCl
3. CCOC(=O)n1[nH]c(=O)n(-c2ccccc2)c1=O
4. Nc1ccccc1N/C(=C\C(=O)C(Cl)(Cl)Cl)c1ccccc1
5. Cc1c2c(nn1C(=O)c1nn(-c3ccc(Cl)cc3)cc1O)-c1ccccc1CC2
6. O=C1/C(=C\C(Cl)=C/c2ccc([N+](=O)[O-])cc2)SC(=S)N1CCc1ccc(O)cc1
7. CC1(C)CC(=O)C2=C(C1)NC(SSC1=C(C#N)C(c3ccc(F)cc3)C3=C(CC(C)(C)CC3=O)N1)=C(C#N)C2c1ccc(F)cc1 (stereo unspecified)
8. CC(C)OCC(O)COc1ccc2ccc(=O)oc2c1 (stereo unspecified)

Result:
1: > 100 µM; 2: 3.25 µM; 3: > 100 µM; 4: > 100 µM; 5: > 100 µM; 6: 1.05 µM; 7: > 150 µg/mL; 8: > 100 µM

Report TGI for every entry below.
1. O=C(O)c1ccc2c(c1Nc1ccccc1)C(=O)c1ccccc1C2=O
2. Cn1c(=O)c2c(no[n+]2[O-])n(C)c1=O
3. N=C1N(c2ccccc2)C(=O)C23CCCC2C13N1CCOCC1 (stereo unspecified)
4. Cc1cccc(N=Nc2c(C)nn(C(=O)CC(=O)Nc3ccccc3)c2C)c1
5. O=C1c2cc3c(cc2-c2c1c1ccc(Cl)cc1c(=O)n2C[C@H](O)[C@@H](O)[C@H](O)CO)OCO3
6. COc1ccc(-c2nn(-c3cccc(NC(=O)Nc4ccc(Cl)c(C(F)(F)F)c4)c3)cc2-c2ccncc2)cc1Cl
7. ClCc1ccc(-c2ccc(Cn3cnc4c(Cl)nc(Cl)nc43)cc2)cc1
8. CN1C2CCC1C(C(O)c1ccccc1[N+](=O)[O-])C(=O)C2 (stereo unspecified)

Result:
["> 100 µM", "> 100 µM", "> 100 µM", "> 100 µM", "> 100 µM", "8.55 µM", "4.4 µM", "> 100 µM"]

Data provenance: PubChem BioAssay (NCI)
